Test system: ACHN
TEST_SUMMARY: NCI tumour cell line growth inhibition, 48 h
Activity calls are given as the source filed them. Cut-off read from the data, not from the text of the source: active = GI50 up to about 1.1 µM and inactive = higher.
For each of the compounds below, state its GI50.

Which GI50 value is on record for Cc1sc2[nH]c(=O)oc(=O)c2c1C ?
97.7 µM (inactive)

Give the measured GI50 of O=C(CC1(O)C(=O)Nc2c(Cl)cc(Cl)cc21)c1ccc(F)cc1 (stereo not given) .
35.9 µM (inactive)

Which GI50 is listed for O=C(O[C@@H](/C=C/c1ccccc1)P1(=O)N(Cc2ccccc2)[C@H]2CCCC[C@@H]2N1Cc1ccccc1)c1ccccc1 ?
2.32 µM (inactive)

For the compound shown here, CSc1ccc2c(cc1=O)[C@@H](NC(=O)c1cc(O)c(O)c(O)c1)CCc1cc(O)c(O)c(O)c1-2 , give the reported GI50.
34.1 µM (inactive)

Given the entry Cc1cc(-c2nc3ccccc3s2)ccc1N , report its measured GI50.
45.4 µM (inactive)

Can you share its GI50? I mean this compound: CCC(c1ccc2cc(O)ccc2c1)C(C)(C)C(=O)O (stereo not given)
> 100 µM (inactive)

Query (compound): CC1=C2CC3=C(C)C(=O)O[C@H]3C[C@@H](C)[C@@H]2CC1 [AMERICANOLIDE D] ; field requested: GI50
> 100 µM (inactive)

Param item = Cc1nc2c(=O)n(-c3ccccc3)c3ccccc3c2o1 ; retrieve measured GI50.
> 100 µM (inactive)

Look up GI50 for this compound: O=C1[C@@H]2Cc3c([nH]c4ccccc34)C(C3CCCCC3)N2C(=O)[C@@H]2CCCN12 (stereo not given in full)
28.9 µM (inactive)

// query GI50 value for entry COC(=O)c1c(O)c2c(c3c1OC(C)(C)CC3)OC(C)(C)CC2
18 µM (inactive)

----------
System: SN12C
TEST_SUMMARY: NCI tumour cell line growth inhibition, 48 h
The source made the active and inactive calls. No stated cut-off is given here; in the data, active = GI50 up to about 1.1 µM and inactive = higher.
TEST_READOUT: GI50

Query: GI50; subject: N/C(CCSCCSCC/C(N)=N\O)=N\O
> 100 µM (inactive)

What value of GI50 has been recorded for this entry: O=C([O-])C1([n+]2c(-c3ccccc3)cc(-c3ccccc3)cc2-c2ccccc2)CC1
> 100 µM (inactive)

Could you share which GI50 value was measured for COc1cccc(N2CCc3c(C)c(C#N)c4nc5ccccc5n4c32)c1 ?
> 100 µM (inactive)

Could you share which GI50 value was measured for CC(C)(C)CN1[C@@H]2CCCC[C@H]2N(CC(C)(C)C)P1(=O)Cc1ccccc1 ?
16.3 µM (inactive)

I'd like to know its GI50. The compound in question is O=C1OCCC1C(O)C1c2ccccc2-c2ccccc21 (centres undefined)
> 100 µM (inactive)

Can you look up the measured GI50 of CC(=O)NC1=C[C@@H]([C@H]2COC(C)(C)O2)OC1=O for me?
> 100 µM (inactive)

Consider the compound S=c1c2ccccc2c(=S)n2n1CC=CC2 and give its measured GI50.
> 100 µM (inactive)

I am curious: what GI50 value has been reported for Cc1cc(CCC(=O)NCCNc2c3ccccc3nc3ccccc23)cc(C)c1O[Si](C)(C)C(C)(C)C ?
15.5 µM (inactive)

Consider the compound CC1(C)OCC(C2OC(OC(=O)c3ccc(C(F)(F)F)cc3)C3OC(C)(C)OC23)O1 (centres undefined) and give its measured GI50.
> 77.4 µM (inactive)

Can you share its GI50? I mean this compound: C=C(OC1C(C)=C2C(C1OC(=O)CCCCCCC)C(C)(OC(C)=O)CC(OC(=O)CCC)C1(O)C2OC(=O)C1(C)O)/C(C)=C/C (centres undefined)
0.0125 µM (active)

Return reported GI50; argument: CC(=O)OC1OC(c2ccoc2)C[C@@]12C1CCC3O[C@]3(C)[C@]1(C)[C@H](OC(C)=O)[C@H](OC(C)=O)[C@H]2C (some centres undefined)
> 37.5 µM (inactive)

Look up GI50: COC(=O)CCSC(=O)Nc1ccccc1Cl
> 100 µM (inactive)

Name the recorded GI50 for [N-]=[N+]=NC1C(O)C(CO)OC1n1cnc2c(N)ncnc21 (centres undefined) .
25.9 µM (inactive)

Please report the recorded GI50 for C/C(=N\[N+](C)(C)C)C(c1ccccc1)C1(c2ccccc2)C(c2ccccc2)=C1c1ccccc1 (centres undefined) .
> 100 µM (inactive)

Query (compound): Cc1ccc(S(=O)(=O)C(C#N)c2nc3ccccc3nc2N2CCOCC2)cc1 (centres undefined) ; field requested: GI50
28.2 µM (inactive)

Entry O=[N+]([O-])c1cc(Cl)ccc1S(=O)(=O)c1cc(Cl)cc2c1NCCC2 : reported GI50 = ?
> 100 µM (inactive)

# input compound: Cc1oc2c(C)c3oc(=O)cc(C)c3cc2c1CNC(=O)[C@@H]1OCCOCCOCCOCCOCCOC1C(=O)O (some centres undefined) ; wanted: its GI50
> 100 µM (inactive)

Any idea what its GI50 is? The compound is CC1(C)OC(C[C@]2(C#N)C[C@H](CCl)OC(C)(C)O2)C[C@@H](C[C@]2(C#N)C[C@H](CCl)OC(C)(C)O2)O1 (some centres undefined)
> 100 µM (inactive)

I'd like to know its GI50. The compound in question is C=CCNC(=O)NC1=CSC2=NC(=O)C3(NN12)c1ccccc1-c1ccccc13
> 10 µM (inactive)
